Each recorded value in this set is attributed to the supplement of paper PMC10567573.

B1: TRIM39 (parent)
chain: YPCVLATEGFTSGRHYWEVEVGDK

Variants of: B1
Assay: protein stability index of a GFP-peptide fusion (GPS, HEK-293T) (PSI 1-6); higher = more stable;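 further: lentivirally expressed fusions sorted by FACS into six bins by GFP to DsRed ratio, PSI derived from sequencing read proportions per bin multiplied by bin number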
Conditions: c terminus: a fixed tail appended
Could you label it 1.0 if measured protein stability index is 2 or higher, and 0.0 otherwise?

Take a look at these entries with their results.
VARIANT CODE | CATEGORY LABEL
T7D | 0.0
W17I | 1.0
C3M | 0.0
Y16D | 1.0
G22Q | 1.0

stdin: Could you please find out whether A6P has protein stability index that meets 2 or exceeds it?
stdout: 0.0
